Test summary: Stability in cynomolgus monkey fecal homogenate
Type: in vitro ADME
Condition description: 20% fecal homogenate (supernatant), pH 6.8, 20% cynomolgus monkey fecal homogenate, anaerobic, 37° C., read-out: t½: Monkey Feces anaerobic (converted)
Bridge positions count the residues as written; N and C are the ends. Square brackets hold non-standard residues; d marks the D form. Peptide text beside a SMILES is read from it. Trp(7-OMe) = COc1cccc2c(C[C@H](N)C(=O)O)c[nH]c12; Trp(7-Me) = Cc1cccc2c(C[C@H](N)C(=O)O)c[nH]c12; 2Nal = N[C@@H](Cc1ccc2ccccc2c1)C(=O)O; AEF = NCCOc1ccc(C[C@H](N)C(=O)O)cc1; Cit = NC(=O)NCCC[C@H](N)C(=O)O; Pen = CC(C)(S)[C@H](N)C(=O)O; αMeK = C[C@](N)(CCCCN)C(=O)O; Aib = CC(C)(N)C(=O)O
Listing of recorded half-life at 20 μM by entry.

Illustrative cases are given below, each with its answer.
CC(=O)NCCCC[C@@H]1NC(=O)[C@H](Cc2c[nH]c3c(C)cccc23)NC(=O)[C@H]([C@@H](C)O)NC(=O)[C@H](C)NC(=O)[C@@H](NC(C)=O)C(C)(C)SSC(C)(C)[C@@H](C(=O)N[C@@H](Cc2ccc(OCCN)cc2)C(=O)N[C@@H](Cc2ccc3ccccc3c2)C(=O)N[C@@](C)(CCCCN)C(=O)N[C@@H](CCCCNC(C)=O)C(=O)N[C@@H](CC(N)=O)C(=O)N[C@H](CC(C)C)C(N)=O)NC1=O [compound 328] (Ac-[Pen]AT[Trp(7-Me)]K(Ac)[Pen][AEF][2Nal][αMeK]K(Ac)N[dL]-NH2; disulfide 1-6): > 24 h
COc1cccc2c(C[C@@H]3NC(=O)[C@H]([C@@H](C)O)NC(=O)[C@H](CC(N)=O)NC(=O)[C@@H](NC(C)=O)C(C)(C)SSC(C)(C)[C@@H](C(=O)N[C@@H](Cc4ccc(OCCN)cc4)C(=O)N[C@@H](Cc4ccc5ccccc5c4)C(=O)N[C@@](C)(CCCCN)C(=O)N[C@@H](CCCCNC(C)=O)C(=O)N[C@@H](CC(N)=O)C(=O)N[C@H](CCCCN)C(N)=O)NC(=O)[C@H](CCCNC(N)=O)NC3=O)c[nH]c12 [compound 300] (Ac-[Pen]NT[Trp(7-OMe)][Cit][Pen][AEF][2Nal][αMeK]K(Ac)N[dK]-NH2; disulfide 1-6): > 24 h

Now consider a different compound.
Form field: reported half-life at 20 μM of CC(=O)NCCCC[C@H](NC(=O)[C@](C)(CCCCN)NC(=O)[C@H](Cc1ccc2ccccc2c1)NC(=O)[C@H](Cc1ccc(OCCN)cc1)NC(=O)[C@H]1NC(=O)[C@H](CCCNC(N)=O)NC(=O)[C@H](Cc2c[nH]c3c(C)cccc23)NC(=O)[C@H]([C@@H](C)O)NC(=O)[C@H](CC(N)=O)NC(=O)[C@@H](NC(C)=O)C(C)(C)SSC1(C)C)C(=O)N[C@@H](CC(N)=O)C(=O)NC(C)(C)C(=O)NCC(N)=O [compound 341] (Ac-[Pen]NT[Trp(7-Me)][Cit][Pen][AEF][2Nal][αMeK]K(Ac)N[Aib]G-NH2; disulfide 1-6) > 24 h
